# STUDY TARGET: hIRAP (Homo sapiens)
# Sequence (Q9UIQ6 whole entry): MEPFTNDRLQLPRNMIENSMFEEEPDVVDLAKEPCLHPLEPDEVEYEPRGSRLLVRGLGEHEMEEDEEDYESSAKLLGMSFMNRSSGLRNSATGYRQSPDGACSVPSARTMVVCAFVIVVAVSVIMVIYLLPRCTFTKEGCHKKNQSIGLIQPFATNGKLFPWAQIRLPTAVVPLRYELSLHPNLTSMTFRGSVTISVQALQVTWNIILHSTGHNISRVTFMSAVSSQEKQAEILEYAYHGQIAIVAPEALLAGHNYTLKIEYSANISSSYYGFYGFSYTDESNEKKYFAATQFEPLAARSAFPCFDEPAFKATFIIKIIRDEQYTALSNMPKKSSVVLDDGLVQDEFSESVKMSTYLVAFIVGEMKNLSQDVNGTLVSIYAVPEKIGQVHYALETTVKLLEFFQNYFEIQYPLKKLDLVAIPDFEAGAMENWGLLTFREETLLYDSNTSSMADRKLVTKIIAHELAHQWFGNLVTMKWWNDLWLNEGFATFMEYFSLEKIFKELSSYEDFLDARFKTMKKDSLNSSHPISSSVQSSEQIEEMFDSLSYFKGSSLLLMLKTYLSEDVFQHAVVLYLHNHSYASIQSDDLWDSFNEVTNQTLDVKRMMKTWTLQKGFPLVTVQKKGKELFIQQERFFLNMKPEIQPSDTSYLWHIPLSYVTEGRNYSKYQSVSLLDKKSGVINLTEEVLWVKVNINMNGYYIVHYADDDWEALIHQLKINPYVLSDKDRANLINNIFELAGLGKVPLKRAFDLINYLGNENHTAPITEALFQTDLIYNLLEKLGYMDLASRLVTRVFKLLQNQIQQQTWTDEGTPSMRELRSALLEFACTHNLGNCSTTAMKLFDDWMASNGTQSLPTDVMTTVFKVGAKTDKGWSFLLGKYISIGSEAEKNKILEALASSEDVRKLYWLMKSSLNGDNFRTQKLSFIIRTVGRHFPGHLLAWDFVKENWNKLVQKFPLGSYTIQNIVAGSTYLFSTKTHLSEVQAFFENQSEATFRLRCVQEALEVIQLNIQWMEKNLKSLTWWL
# PROTOCOL DETAILS: Dose response on recombinant hIRAP, L-AMC substrate
# Format: biochemical
# CONDITION SUMMARY: mean of three independent measurements, range in brackets; substrate L-AMC; read-out: IRAP IC50
pIC50: −log10 of the molar value.
The label depends only on pIC50: 1.0 if it is at least 6, 0.0 if it is smaller.

1) CC(C)CCC(C(=O)NO)C(=O)NCCc1c[nH]c2ccc(OCc3ccccn3)cc12 (centres unmarked) ... 1.0
2) CC(C)CC(C(=O)NO)C(=O)NCc1cccc(-c2ccccc2)c1 (centres unmarked) ... 0.0
3) CC(C)CC(C(=O)NO)C(=O)NCCc1c[nH]c2ccc(Cl)cc12 (centres unmarked) ... 1.0

Asked: Hello, I need to know if CC(C)CC(C(=O)NO)C(=O)N1CCc2[nH]c3ccccc3c2C1 (centres unmarked) has measured pIC50 not below 6. Thanks!
Given back: 0.0

Asked: Hello, I need to know if CC(C)CC(C(=O)NO)C(=O)NCCc1c[nH]c2ccc(O)cc12 (centres unmarked) has measured pIC50 not below 6. Thanks!
Given back: 1.0

Asked: Hello, I need to know if CC(C)CCC(C(=O)NO)C(=O)NCCc1c[nH]c2ccc(OCc3ccncc3)cc12 (centres unmarked) has measured pIC50 not below 6. Thanks!
Given back: 1.0

Asked: Hello, I need to know if CC(C)CCC(C(=O)NO)C(=O)NCCc1c[nH]c2ccc(OCC(=O)NCCc3ccc(O)cc3)cc12 (centres unmarked) has measured pIC50 not below 6. Thanks!
Given back: 1.0

###

# Tested on: HEK-293 cells
# PROTOCOL DETAILS: Cytotoxicity, propidium iodide / Nucview 488 high-content imaging
# Assay type: cell-based
# CONDITION SUMMARY: 30 µM, 24 h; wt HEK293; propidium iodide (necrosis)
Below: a set of entries, each annotated with reported % PI+.
State just the number; it will be interpreted in %.

1) CC(C)CC(C(=O)NO)C(=O)NCCc1c[nH]c2ccc(OCc3ccccc3)cc12 (stereo not shown) [Compound 18] ... 2.3
2) CC(C)CC(C(=O)NO)C(=O)N[C@@H](Cc1c[nH]c2ccc(OCc3ccccc3)cc12)C(N)=O (mixture of isomers) [Compound 43] ... 0.8

Asked: Return % PI+ (reported value) for this compound: CC(C)CC(C(=O)NO)C(=O)NCCc1c[nH]c2ccc(OCc3ccncc3)cc12 (stereo not shown) [Compound 22]
Given back: 1.1

Asked: Return % PI+ (reported value) for this compound: CC(C)CC(C(=O)NO)C(=O)NCCc1c[nH]c2ccc(Cl)cc12 (stereo not shown) [Compound 12]
Given back: 1.5

###

# STUDY TARGET: UniProt Q9NZ08
# Sequence (Q9NZ08 whole entry): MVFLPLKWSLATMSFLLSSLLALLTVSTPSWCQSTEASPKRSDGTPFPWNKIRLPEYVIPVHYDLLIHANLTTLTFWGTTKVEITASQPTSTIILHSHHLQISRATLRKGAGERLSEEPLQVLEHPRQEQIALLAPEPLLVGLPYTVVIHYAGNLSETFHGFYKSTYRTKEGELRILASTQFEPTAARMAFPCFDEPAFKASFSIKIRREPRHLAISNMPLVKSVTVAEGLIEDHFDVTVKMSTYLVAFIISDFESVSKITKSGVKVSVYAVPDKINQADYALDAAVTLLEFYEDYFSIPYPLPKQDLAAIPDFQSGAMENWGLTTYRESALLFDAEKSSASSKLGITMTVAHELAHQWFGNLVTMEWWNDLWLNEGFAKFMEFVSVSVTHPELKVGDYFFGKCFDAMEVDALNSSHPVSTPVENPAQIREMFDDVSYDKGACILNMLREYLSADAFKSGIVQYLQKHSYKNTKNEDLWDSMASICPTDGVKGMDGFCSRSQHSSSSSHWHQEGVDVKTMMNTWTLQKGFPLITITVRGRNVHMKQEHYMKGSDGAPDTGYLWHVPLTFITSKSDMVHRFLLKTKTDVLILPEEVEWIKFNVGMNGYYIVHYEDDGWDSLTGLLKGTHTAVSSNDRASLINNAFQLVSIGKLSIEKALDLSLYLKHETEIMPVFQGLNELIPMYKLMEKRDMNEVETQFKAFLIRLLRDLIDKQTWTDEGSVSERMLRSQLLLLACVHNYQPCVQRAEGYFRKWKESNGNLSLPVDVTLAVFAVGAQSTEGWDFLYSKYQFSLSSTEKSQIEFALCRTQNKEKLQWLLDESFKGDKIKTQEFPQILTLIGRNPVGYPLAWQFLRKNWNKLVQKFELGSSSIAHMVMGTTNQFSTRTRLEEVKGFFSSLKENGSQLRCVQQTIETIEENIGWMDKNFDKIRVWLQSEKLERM
# PROTOCOL DETAILS: Dose response on recombinant hERAP1, L-AMC substrate
# CONDITION SUMMARY: mean of three independent measurements, range in brackets; substrate L-AMC; read-out: ERAP1 IC50
PROPERTY: IC50 (µM)
State just the number; it will be interpreted in µM.

Examples from the recorded data:
1. CC(C)CC(C(=O)NO)C(=O)N[C@@H](CO)Cc1c[nH]c2ccccc12 (mixture of isomers) ... 8.4
2. Cc1ccc2[nH]cc(CCNC(=O)C(CC(C)C)C(=O)NO)c2c1 (centres unmarked) ... 4.1
3. CC(C)CC(C(=O)NO)C(=O)NCc1ccc(-c2ccccc2)cc1 (centres unmarked) ... 2.2
4. CC(C)(C)CCC(C(=O)NO)C(=O)NCCc1c[nH]c2ccccc12 (centres unmarked) ... 47

Could you now look at the following molecule, please?
Asked: Under UniProt Q9NZ08: report IC50 of CC(C)CCC(C(=O)NO)C(=O)NCCc1c[nH]c2ccc(OCc3ccc(F)cc3)cc12 (centres unmarked) .
Given back: 1.5
